Reference source: the Human Domainome abundance scans (Beltran et al. 2025)

Documented abundance fitness across a set of variants
B1: FERM and PDZ domain-containing protein 4, residues 75 to 154; numbered along this chain, Q14CM0 (parent)
chain: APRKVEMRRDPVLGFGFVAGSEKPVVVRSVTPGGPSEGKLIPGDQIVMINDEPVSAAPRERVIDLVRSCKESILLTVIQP

Variants of: B1
Assay: abundance fitness (aPCA) (normalised: wild type 0, dead -1); higher = more abundant; growth selection in yeast, the domain comes from the species named
Conditions: Homo sapiens
attributeMeasured: abundance fitness

{"variantLabel": "A19G", "attributeMeasured": "abundance fitness", "recordedMeasurement": -0.074}
{"variantLabel": "P32S", "attributeMeasured": "abundance fitness", "recordedMeasurement": -0.032}
{"variantLabel": "Q79D", "attributeMeasured": "abundance fitness", "recordedMeasurement": -0.002}
{"variantLabel": "I41M", "attributeMeasured": "abundance fitness", "recordedMeasurement": 0.03}
{"variantLabel": "V77Y", "attributeMeasured": "abundance fitness", "recordedMeasurement": -0.815}
{"variantLabel": "R9E", "attributeMeasured": "abundance fitness", "recordedMeasurement": -0.382}
{"variantLabel": "S36F", "attributeMeasured": "abundance fitness", "recordedMeasurement": -0.742}
{"variantLabel": "L65Q", "attributeMeasured": "abundance fitness", "recordedMeasurement": -0.094}
{"variantLabel": "V18E", "attributeMeasured": "abundance fitness", "recordedMeasurement": -0.019}
{"variantLabel": "N50I", "attributeMeasured": "abundance fitness", "recordedMeasurement": -0.607}
{"variantLabel": "E22H", "attributeMeasured": "abundance fitness", "recordedMeasurement": -0.202}
{"variantLabel": "L13S", "attributeMeasured": "abundance fitness", "recordedMeasurement": -0.013}
{"variantLabel": "E22G", "attributeMeasured": "abundance fitness", "recordedMeasurement": -0.026}
{"variantLabel": "Q45C", "attributeMeasured": "abundance fitness", "recordedMeasurement": -0.101}
{"variantLabel": "P32W", "attributeMeasured": "abundance fitness", "recordedMeasurement": -0.247}
{"variantLabel": "M48C", "attributeMeasured": "abundance fitness", "recordedMeasurement": -0.003}
{"variantLabel": "R8M", "attributeMeasured": "abundance fitness", "recordedMeasurement": -0.014}
{"variantLabel": "S21C", "attributeMeasured": "abundance fitness", "recordedMeasurement": -0.047}
{"variantLabel": "D64R", "attributeMeasured": "abundance fitness", "recordedMeasurement": -0.049}
{"variantLabel": "M48D", "attributeMeasured": "abundance fitness", "recordedMeasurement": -0.095}
{"variantLabel": "P35D", "attributeMeasured": "abundance fitness", "recordedMeasurement": -0.737}
{"variantLabel": "I78H", "attributeMeasured": "abundance fitness", "recordedMeasurement": -0.015}
{"variantLabel": "D64H", "attributeMeasured": "abundance fitness", "recordedMeasurement": -0.045}
{"variantLabel": "E6T", "attributeMeasured": "abundance fitness", "recordedMeasurement": -0.009}
{"variantLabel": "T31P", "attributeMeasured": "abundance fitness", "recordedMeasurement": -0.59}
{"variantLabel": "G34W", "attributeMeasured": "abundance fitness", "recordedMeasurement": -1.1}
{"variantLabel": "D51I", "attributeMeasured": "abundance fitness", "recordedMeasurement": -0.511}
{"variantLabel": "V27G", "attributeMeasured": "abundance fitness", "recordedMeasurement": -0.938}
{"variantLabel": "A57H", "attributeMeasured": "abundance fitness", "recordedMeasurement": -0.083}
{"variantLabel": "G34I", "attributeMeasured": "abundance fitness", "recordedMeasurement": -0.957}
{"variantLabel": "V25F", "attributeMeasured": "abundance fitness", "recordedMeasurement": -0.127}
{"variantLabel": "L65A", "attributeMeasured": "abundance fitness", "recordedMeasurement": -0.056}
{"variantLabel": "P53C", "attributeMeasured": "abundance fitness", "recordedMeasurement": -0.029}
{"variantLabel": "V47T", "attributeMeasured": "abundance fitness", "recordedMeasurement": -0.01}
{"variantLabel": "V18T", "attributeMeasured": "abundance fitness", "recordedMeasurement": -0.092}
{"variantLabel": "P24Y", "attributeMeasured": "abundance fitness", "recordedMeasurement": -0.691}
{"variantLabel": "P32L", "attributeMeasured": "abundance fitness", "recordedMeasurement": -0.083}
{"variantLabel": "G33I", "attributeMeasured": "abundance fitness", "recordedMeasurement": -0.332}
{"variantLabel": "G33T", "attributeMeasured": "abundance fitness", "recordedMeasurement": -0.157}
{"variantLabel": "C69V", "attributeMeasured": "abundance fitness", "recordedMeasurement": -0.091}
{"variantLabel": "P11D", "attributeMeasured": "abundance fitness", "recordedMeasurement": -0.063}
{"variantLabel": "V12P", "attributeMeasured": "abundance fitness", "recordedMeasurement": -0.545}
{"variantLabel": "R67T", "attributeMeasured": "abundance fitness", "recordedMeasurement": -0.018}
{"variantLabel": "E60N", "attributeMeasured": "abundance fitness", "recordedMeasurement": -0.028}
{"variantLabel": "G20I", "attributeMeasured": "abundance fitness", "recordedMeasurement": -0.051}
{"variantLabel": "G33M", "attributeMeasured": "abundance fitness", "recordedMeasurement": -0.124}
{"variantLabel": "C69P", "attributeMeasured": "abundance fitness", "recordedMeasurement": -0.378}
{"variantLabel": "P11V", "attributeMeasured": "abundance fitness", "recordedMeasurement": -0.247}
{"variantLabel": "R28C", "attributeMeasured": "abundance fitness", "recordedMeasurement": -0.136}
{"variantLabel": "P42V", "attributeMeasured": "abundance fitness", "recordedMeasurement": -0.048}
{"variantLabel": "R8A", "attributeMeasured": "abundance fitness", "recordedMeasurement": -0.009}
{"variantLabel": "R28L", "attributeMeasured": "abundance fitness", "recordedMeasurement": -0.036}
{"variantLabel": "E22M", "attributeMeasured": "abundance fitness", "recordedMeasurement": -0.22}
{"variantLabel": "V66H", "attributeMeasured": "abundance fitness", "recordedMeasurement": -0.686}
{"variantLabel": "G34H", "attributeMeasured": "abundance fitness", "recordedMeasurement": -0.543}
{"variantLabel": "A19S", "attributeMeasured": "abundance fitness", "recordedMeasurement": -0.066}
{"variantLabel": "P58A", "attributeMeasured": "abundance fitness", "recordedMeasurement": -0.067}
{"variantLabel": "G14N", "attributeMeasured": "abundance fitness", "recordedMeasurement": -0.131}
{"variantLabel": "V26K", "attributeMeasured": "abundance fitness", "recordedMeasurement": -0.048}
{"variantLabel": "R67K", "attributeMeasured": "abundance fitness", "recordedMeasurement": 0.002}
{"variantLabel": "R8P", "attributeMeasured": "abundance fitness", "recordedMeasurement": -0.116}
{"variantLabel": "V18L", "attributeMeasured": "abundance fitness", "recordedMeasurement": -0.142}
{"variantLabel": "M48Y", "attributeMeasured": "abundance fitness", "recordedMeasurement": -0.083}
{"variantLabel": "S29E", "attributeMeasured": "abundance fitness", "recordedMeasurement": 0.007}
{"variantLabel": "D51C", "attributeMeasured": "abundance fitness", "recordedMeasurement": -0.135}
{"variantLabel": "F15P", "attributeMeasured": "abundance fitness", "recordedMeasurement": -0.857}
{"variantLabel": "V66A", "attributeMeasured": "abundance fitness", "recordedMeasurement": -0.219}
{"variantLabel": "G43W", "attributeMeasured": "abundance fitness", "recordedMeasurement": -0.402}
{"variantLabel": "L65D", "attributeMeasured": "abundance fitness", "recordedMeasurement": -0.462}
{"variantLabel": "V30E", "attributeMeasured": "abundance fitness", "recordedMeasurement": -0.901}
{"variantLabel": "P42Y", "attributeMeasured": "abundance fitness", "recordedMeasurement": -0.276}
{"variantLabel": "E22L", "attributeMeasured": "abundance fitness", "recordedMeasurement": -0.315}
{"variantLabel": "P58S", "attributeMeasured": "abundance fitness", "recordedMeasurement": 0.017}
{"variantLabel": "V54H", "attributeMeasured": "abundance fitness", "recordedMeasurement": -0.942}
{"variantLabel": "R28H", "attributeMeasured": "abundance fitness", "recordedMeasurement": -0.08}
{"variantLabel": "L40V", "attributeMeasured": "abundance fitness", "recordedMeasurement": -0.156}
{"variantLabel": "R3P", "attributeMeasured": "abundance fitness", "recordedMeasurement": -0.937}
{"variantLabel": "P35T", "attributeMeasured": "abundance fitness", "recordedMeasurement": -0.543}
{"variantLabel": "E22A", "attributeMeasured": "abundance fitness", "recordedMeasurement": -0.075}
{"variantLabel": "P58K", "attributeMeasured": "abundance fitness", "recordedMeasurement": -0.027}
{"variantLabel": "D51Y", "attributeMeasured": "abundance fitness", "recordedMeasurement": -0.145}
{"variantLabel": "R28K", "attributeMeasured": "abundance fitness", "recordedMeasurement": -0.002}
{"variantLabel": "R3H", "attributeMeasured": "abundance fitness", "recordedMeasurement": -0.176}
{"variantLabel": "I49V", "attributeMeasured": "abundance fitness", "recordedMeasurement": 0.006}
{"variantLabel": "G38Y", "attributeMeasured": "abundance fitness", "recordedMeasurement": -0.142}
{"variantLabel": "T76P", "attributeMeasured": "abundance fitness", "recordedMeasurement": -0.639}
{"variantLabel": "P53V", "attributeMeasured": "abundance fitness", "recordedMeasurement": -0.012}
{"variantLabel": "I73Y", "attributeMeasured": "abundance fitness", "recordedMeasurement": -0.755}
{"variantLabel": "P11K", "attributeMeasured": "abundance fitness", "recordedMeasurement": -0.09}
{"variantLabel": "S29D", "attributeMeasured": "abundance fitness", "recordedMeasurement": -0.034}
{"variantLabel": "P80S", "attributeMeasured": "abundance fitness", "recordedMeasurement": -0.066}
